TESTED_SYSTEM: T1, Bovine carbonic anhydrase II (bovine, UniProt P00921 2-260)
T1 construct: Commercial protein; also called BCA
T1 sequence (P00921 2-260 limits assumed): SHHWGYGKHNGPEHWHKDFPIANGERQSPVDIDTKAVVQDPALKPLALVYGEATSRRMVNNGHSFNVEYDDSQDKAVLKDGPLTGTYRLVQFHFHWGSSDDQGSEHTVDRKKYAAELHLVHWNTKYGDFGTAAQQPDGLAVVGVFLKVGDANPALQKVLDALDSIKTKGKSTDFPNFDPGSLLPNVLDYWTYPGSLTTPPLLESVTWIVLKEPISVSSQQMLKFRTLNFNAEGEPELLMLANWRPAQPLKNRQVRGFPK
ASSAY_INFO: isothermal titration calorimetry, 30 C, single binding site model; control peptide SA-GGGG (SEQ ID NO:101)
SA = 4-(aminooxymethyl)benzenesulfonamide joined by oxime ligation to the periodate-oxidised N-terminal serine
READOUT_TYPE: Kd
The reply should consist of the numeric value with the unit placed after it.

# input For the binder {SA}-GGGG-NH2 (also: N-terminal SA cap oxime-linked, made from oxidised N-terminal Ser, Control peptide in ITC; also called control peptide SA-GGGG) [SA-GGGG (control sulfonamide-modified peptide)] , what Kd is on record?
# output 150 nM
